Please provide measured DC50 for the entries that follow.
target: IKZF2 (Homo sapiens (Human), UniProt Q96SW2+Q9UKS7); assay: In vitro IKZF2 FACS Assay in Jurkat cells; assay type: cell-based; conditions: 24 hrs, half maximal degradation concentration
Sequence (Q9UKS7 whole entry): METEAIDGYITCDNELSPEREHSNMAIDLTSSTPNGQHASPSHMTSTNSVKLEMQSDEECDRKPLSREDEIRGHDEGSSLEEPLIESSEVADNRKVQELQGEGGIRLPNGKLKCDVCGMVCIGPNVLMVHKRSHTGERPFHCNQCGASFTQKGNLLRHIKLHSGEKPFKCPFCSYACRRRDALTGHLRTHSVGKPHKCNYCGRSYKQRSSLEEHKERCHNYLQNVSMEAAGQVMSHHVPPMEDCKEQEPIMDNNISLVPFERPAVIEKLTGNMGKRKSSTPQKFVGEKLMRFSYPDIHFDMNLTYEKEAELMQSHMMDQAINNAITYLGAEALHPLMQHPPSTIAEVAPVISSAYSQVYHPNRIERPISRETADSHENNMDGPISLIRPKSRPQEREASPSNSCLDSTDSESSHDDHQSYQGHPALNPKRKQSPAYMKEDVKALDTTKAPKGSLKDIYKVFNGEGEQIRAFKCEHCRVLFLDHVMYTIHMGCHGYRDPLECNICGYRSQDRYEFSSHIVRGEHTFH
Sequence (Q96SW2 whole entry): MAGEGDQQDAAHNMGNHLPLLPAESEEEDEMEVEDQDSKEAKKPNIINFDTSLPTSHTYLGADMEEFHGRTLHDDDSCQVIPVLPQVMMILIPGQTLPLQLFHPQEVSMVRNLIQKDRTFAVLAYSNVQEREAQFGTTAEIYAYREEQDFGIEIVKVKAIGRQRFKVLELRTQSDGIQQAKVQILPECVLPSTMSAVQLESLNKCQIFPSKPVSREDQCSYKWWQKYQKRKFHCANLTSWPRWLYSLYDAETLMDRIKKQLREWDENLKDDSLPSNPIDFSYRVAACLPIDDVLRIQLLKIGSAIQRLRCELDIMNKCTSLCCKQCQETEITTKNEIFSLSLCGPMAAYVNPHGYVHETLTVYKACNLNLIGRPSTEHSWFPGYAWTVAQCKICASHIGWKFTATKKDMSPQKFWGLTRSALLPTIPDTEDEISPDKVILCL
Sequence (Q16531 2-1140 partner): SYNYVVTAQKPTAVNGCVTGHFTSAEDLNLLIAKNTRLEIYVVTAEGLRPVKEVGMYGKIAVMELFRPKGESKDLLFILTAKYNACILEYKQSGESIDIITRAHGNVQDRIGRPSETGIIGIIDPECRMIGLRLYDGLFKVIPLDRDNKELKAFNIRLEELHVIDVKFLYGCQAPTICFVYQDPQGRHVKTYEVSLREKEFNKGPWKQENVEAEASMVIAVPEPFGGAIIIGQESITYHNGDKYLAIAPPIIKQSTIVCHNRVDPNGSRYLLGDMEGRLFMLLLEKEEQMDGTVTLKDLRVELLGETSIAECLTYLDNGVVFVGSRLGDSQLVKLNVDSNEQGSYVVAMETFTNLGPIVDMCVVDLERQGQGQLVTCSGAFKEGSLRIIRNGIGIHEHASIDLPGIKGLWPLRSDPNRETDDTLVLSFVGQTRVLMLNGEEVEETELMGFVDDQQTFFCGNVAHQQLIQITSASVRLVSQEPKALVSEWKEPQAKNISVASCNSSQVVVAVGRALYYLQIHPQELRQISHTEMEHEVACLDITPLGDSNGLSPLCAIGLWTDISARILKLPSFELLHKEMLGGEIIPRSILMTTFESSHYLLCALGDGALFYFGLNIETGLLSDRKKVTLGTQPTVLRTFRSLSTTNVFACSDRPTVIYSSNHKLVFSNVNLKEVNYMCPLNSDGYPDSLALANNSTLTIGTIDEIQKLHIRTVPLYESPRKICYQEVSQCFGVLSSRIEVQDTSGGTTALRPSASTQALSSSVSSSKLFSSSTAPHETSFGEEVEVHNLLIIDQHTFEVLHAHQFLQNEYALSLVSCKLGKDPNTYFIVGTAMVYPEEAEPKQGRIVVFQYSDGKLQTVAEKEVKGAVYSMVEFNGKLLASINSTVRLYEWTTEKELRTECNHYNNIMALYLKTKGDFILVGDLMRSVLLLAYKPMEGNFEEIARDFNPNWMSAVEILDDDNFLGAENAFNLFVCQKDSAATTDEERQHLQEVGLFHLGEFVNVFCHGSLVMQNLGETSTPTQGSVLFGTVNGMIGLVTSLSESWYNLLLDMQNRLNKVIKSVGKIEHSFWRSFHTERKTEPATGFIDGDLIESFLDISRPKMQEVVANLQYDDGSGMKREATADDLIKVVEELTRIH

Worked examples follow.
O=C1CCC(N2Cc3cc(-c4cc(CN5CCCC5)c5c(C(F)(F)F)nn(C6COC6)c5n4)ccc3C2=O)C(=O)N1 (centres unmarked)
0.001 to 0.01 µM
CC1c2cc(-c3cc(CN4CCCC4)c4ccn(C5COC5)c4n3)ccc2C(=O)N1C1CCC(=O)NC1=O (centres unmarked)
0.001 to 0.01 µM
O=C1CCC(N2Cc3cc(-c4cc(CN5CC6COCC6C5)c5ccn(C6COC6)c5n4)ccc3C2=O)C(=O)N1 (centres unmarked)
0.001 to 0.01 µM
O=C1CCC(N2Cc3cc(-c4cc(CN5CCC6(CC5)CC6)cc5cncn45)ccc3C2=O)C(=O)N1 (centres unmarked)
0.01 to 0.1 µM
O=C1CCC(N2Cc3cc(-c4cc(CN5CCC(F)CC5)c5cc[nH]c5n4)ccc3C2=O)C(=O)N1 (centres unmarked)
0.001 to 0.01 µM
CC(NCc1cc(-c2ccc3c(c2)CN(C2CCC(=O)NC2=O)C3=O)n2cncc2c1)c1cccc(Cl)c1 (centres unmarked)
0.01 to 0.1 µM

Give DC50 for each of the items listed below.
1. CC1CCCN(Cc2cc(-c3ccc4c(c3)CN(C3CCC(=O)NC3=O)C4=O)n3cncc3c2)C1 (centres unmarked)
2. Nc1n[nH]c2c(CN3CCC(O)CC3)cc(-c3ccc4c(c3)CN(C3CCC(=O)NC3=O)C4=O)nc12 (centres unmarked)

Reply:
0.01 to 0.1 µM
0.1 to 1 µM

Give DC50 for each of the items listed below.
1. Cn1ccc2c(CN3CCCC3)cc(-c3ccc4c(c3)CN(C3CCC(=O)NC3=O)C4=O)nc21 (centres unmarked)
2. CN1CC(n2ccc3c(CN4CCCC4)cc(-c4ccc5c(c4F)CN(C4CCC(=O)NC4=O)C5=O)nc32)C1 (centres unmarked)
3. CCN(CC)Cc1cc(-c2ccc3c(c2)CN(C2CCC(=O)NC2=O)C3=O)n2cncc2c1 (centres unmarked)
4. Nc1[nH]nc2c(CN3CCCC3)cc(-c3ccc4c(c3F)CN(C3CCC(=O)NC3=O)C4=O)nc12 (centres unmarked)

Reply:
["< 0.001 µM", "0.001 to 0.01 µM", "0.1 to 1 µM", "0.001 to 0.01 µM"]

----------
target: IKZF2 (Homo sapiens (Human), UniProt Q96SW2+Q9UKS7); test: In vitro IKZF2 HiBit Assay (HEK293T Flp-in-HiBiT cells); type: cell-based; settings: HEK-293T; HEK293T Flp-in-HiBiT cells, 6 hrs incubation; read-out: IKZF2 HiBit Dmax (%)
value_kind: Dmax

Worked examples follow.
Cn1ccc2c(CN3CCC(O)C3)cc(-c3ccc4c(c3)CN(C3CCC(=O)NC3=O)C4=O)nc21 (stereo not shown)
> 80%
CO[C@H]1C[C@H](Oc2ccnc3c(CN4CCCC4)cc(-c4ccc5c(c4)CN(C4CCC(=O)NC4=O)C5=O)nc23)C1 (stereo partly shown)
60 to 80%
CN(C)CC1CCN(Cc2cc(-c3ccc4c(c3)CN(C3CCC(=O)NC3=O)C4=O)nc3[nH]ccc23)C1 (stereo not shown)
> 80%
Cn1ccc2c(CN3Cc4ccccc4C3)cc(-c3ccc4c(c3)CN(C3CCC(=O)NC3=O)C4=O)nc21 (stereo not shown)
60 to 80%
Cc1nc2c(CN3CCCC3)cc(-c3ccc4c(c3)CN(C3CCC(=O)NC3=O)C4=O)nc2n1C1COC1 (stereo not shown)
60 to 80%

Give Dmax for each of the items listed below.
1. O=C1CCC(N2Cc3cc(-c4cc(CN5CCCC5)c5c(n4)CCC5)ccc3C2=O)C(=O)N1 (stereo not shown)
2. Cc1nn(C2COC2)c2nc(-c3ccc4c(c3)CN(C3CCC(=O)NC3=O)C4=O)cc(CN3CCCC3)c12 (stereo not shown)

Reply:
> 80%
> 80%

----------
target: CRBN/DDB1 (Homo sapiens (Human)); experiment: IC50 measurements for binding to CRBN/DDB1 (HTRF); details: His tagged CRBN+DDB, Cy5-labeled Thalidomide probe, one hour
Sequence (Q96SW2 whole entry, species assumed): as the sequence (Q96SW2 whole entry) above
Sequence (Q16531 whole entry partner, species assumed): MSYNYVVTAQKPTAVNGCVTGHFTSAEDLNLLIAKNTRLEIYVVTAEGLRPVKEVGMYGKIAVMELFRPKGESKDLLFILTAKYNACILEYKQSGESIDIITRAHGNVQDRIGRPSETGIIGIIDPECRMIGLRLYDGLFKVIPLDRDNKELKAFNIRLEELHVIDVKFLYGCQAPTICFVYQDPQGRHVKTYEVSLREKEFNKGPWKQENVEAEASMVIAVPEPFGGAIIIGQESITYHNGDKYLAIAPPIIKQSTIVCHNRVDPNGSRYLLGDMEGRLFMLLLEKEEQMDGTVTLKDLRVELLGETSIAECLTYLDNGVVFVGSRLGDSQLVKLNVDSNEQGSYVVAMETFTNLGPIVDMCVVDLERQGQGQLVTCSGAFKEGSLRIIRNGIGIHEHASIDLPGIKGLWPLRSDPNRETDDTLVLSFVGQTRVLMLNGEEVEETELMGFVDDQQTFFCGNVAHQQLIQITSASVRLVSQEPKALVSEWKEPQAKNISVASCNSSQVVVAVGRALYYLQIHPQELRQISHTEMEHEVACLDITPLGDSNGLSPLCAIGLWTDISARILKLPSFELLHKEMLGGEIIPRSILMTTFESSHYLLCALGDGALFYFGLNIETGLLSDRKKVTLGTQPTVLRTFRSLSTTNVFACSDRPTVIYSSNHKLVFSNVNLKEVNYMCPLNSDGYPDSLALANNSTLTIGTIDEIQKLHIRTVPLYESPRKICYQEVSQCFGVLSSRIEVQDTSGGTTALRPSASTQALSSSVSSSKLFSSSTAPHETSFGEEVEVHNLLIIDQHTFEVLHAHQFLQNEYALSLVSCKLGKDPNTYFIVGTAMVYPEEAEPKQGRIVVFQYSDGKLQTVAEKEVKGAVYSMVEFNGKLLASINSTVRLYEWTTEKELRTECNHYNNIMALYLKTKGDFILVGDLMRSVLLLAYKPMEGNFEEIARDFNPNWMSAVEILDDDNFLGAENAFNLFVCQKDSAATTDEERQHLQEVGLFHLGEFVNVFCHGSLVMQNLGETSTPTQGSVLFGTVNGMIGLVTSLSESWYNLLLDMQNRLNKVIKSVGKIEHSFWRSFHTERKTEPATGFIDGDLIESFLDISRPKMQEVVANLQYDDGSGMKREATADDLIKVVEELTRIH
value_kind: IC50

O=C1CCC(N2Cc3cc(-c4cc(CN5CCCC5)c5ccn(C6CCOC6)c5n4)ccc3C2=O)C(=O)N1 (stereo not drawn) [Example 170]
500 to 1000 nM
O=C1CCC(N2Cc3cc(-c4cc(CN5CCCC5)c5ncn(C6CCC6)c5n4)ccc3C2=O)C(=O)N1 (stereo not drawn) [Example 209]
1000 to 5000 nM
Cn1ncc2c(CN3CCCC3)cc(-c3ccc4c(c3)CN(C3CCC(=O)NC3=O)C4=O)nc21 (stereo not drawn) [Example 313]
1000 to 5000 nM
Cn1ccc2c(CN3Cc4ccccc4C3)cc(-c3ccc4c(c3)CN(C3CCC(=O)NC3=O)C4=O)nc21 (stereo not drawn) [Example 67]
500 to 1000 nM
CC(C)(NCc1cc(-c2ccc3c(c2)CN(C2CCC(=O)NC2=O)C3=O)c2nccn2c1)c1ccccc1 (stereo not drawn) [Example 46]
100 to 500 nM

Give IC50 for each of the items listed below.
1. CC(C)Nc1n[nH]c2c(CN3CCCC3)cc(-c3ccc4c(c3F)CN(C3CCC(=O)NC3=O)C4=O)nc12 (stereo not drawn) [Example 226]
2. Cn1ccc2c(CN3CCc4ccccc4C3)cc(-c3ccc4c(c3)CN(C3CCC(=O)NC3=O)C4=O)nc21 (stereo not drawn) [Example 65]

Reply:
100 to 500 nM
100 to 500 nM

----------
biological target: IKZF2 (Homo sapiens (Human), UniProt Q96SW2+Q9UKS7); assay: In vitro IKZF2 HiBit Assay (HEK293T Flp-in-HiBiT cells); format: cell-based; settings: HEK-293T; HEK293T Flp-in-HiBiT cells, 6 hrs incubation; read-out: IKZF2 HiBit Dmax (%)
value_kind: Dmax

O=C1CCC(N2Cc3cc(-c4nc(CN5CCCC5)c5ccn(C6CS(=O)(=O)C6)c5n4)ccc3C2=O)C(=O)N1 (stereo not shown)
60 to 80%
Cn1ccc2c(CN3CCC4(CC3)CC4)cc(-c3ccc4c(c3)CN(C3CCC(=O)NC3=O)C4=O)nc21 (stereo not shown)
> 80%
Nc1n[nH]c2c(CN3CC(F)C3)cc(-c3ccc4c(c3)CN(C3CCC(=O)NC3=O)C4=O)nc12 (stereo not shown)
60 to 80%

Please find the next molecule below.
Task item: Fill in the recorded Dmax for this molecule, with IKZF2 (Homo sapiens (Human), UniProt Q96SW2+Q9UKS7) as test system: Cn1ccc2c(CN3CCCC3)cc(-c3cc4c(cc3F)C(=O)N(C3CCC(=O)NC3=O)C4)nc21 (stereo not shown)
Reply: 20 to 40%

----------
target: IKZF2 (Homo sapiens (Human), UniProt Q96SW2+Q9UKS7); test: In vitro IKZF2 HiBit Assay (HEK293T Flp-in-HiBiT cells); format: cell-based; conditions: HEK293T Flp-in-HiBiT cells, 6 hrs incubation; read-out: IKZF2 HiBit DC50
Please provide measured DC50 for the entries that follow.

Worked examples follow.
CC(C)CC1CCN(Cc2cc(-c3ccc4c(c3)CN(C3CCC(=O)NC3=O)C4=O)nc3[nH]ccc23)C1 (stereo not drawn)
< 1 nM
COCCn1ccc2c(CN3CCCC3)cc(-c3ccc4c(c3)CN(C3CCC(=O)NC3=O)C4=O)nc21 (stereo not drawn)
1 to 10 nM
Cn1ccc2c(CN3CC4CCCC4C3)cc(-c3ccc4c(c3)CN(C3CCC(=O)NC3=O)C4=O)nc21 (stereo not drawn)
< 1 nM
O=C1CCC(N2Cc3cc(-c4cc(CN5CCC(O)C5)c5ccn(C6COC6)c5n4)ccc3C2=O)C(=O)N1 (stereo not drawn)
10 to 100 nM
Nc1n[nH]c2c(CN3CCC3)cc(-c3ccc4c(c3)CN(C3CCC(=O)NC3=O)C4=O)nc12 (stereo not drawn)
100 to 1000 nM

Give DC50 for each of the items listed below.
1. Cn1ccc2c(CN3CCC(S(C)(=O)=O)CC3)cc(-c3ccc4c(c3)CN(C3CCC(=O)NC3=O)C4=O)nc21 (stereo not drawn)
2. Cn1cc(-n2ccc3c(CN4CCCC4)cc(-c4ccc5c(c4)CN(C4CCC(=O)NC4=O)C5=O)nc32)cn1 (stereo not drawn)
3. CN(C)CC1CCN(Cc2cc(-c3ccc4c(c3)CN(C3CCC(=O)NC3=O)C4=O)nc3[nH]ccc23)C1 (stereo not drawn)
4. Nc1n[nH]c2c(CN3CCC(F)CC3)cc(-c3ccc4c(c3)CN(C3CCC(=O)NC3=O)C4=O)nc12 (stereo not drawn)
5. CC(C)Nc1n[nH]c2c(CN3CCC(F)CC3)cc(-c3ccc4c(c3F)CN(C3CCC(=O)NC3=O)C4=O)nc12 (stereo not drawn)
6. Cn1ccc2c(CN3CCC4(CC3)CC4)cc(-c3ccc4c(c3)CN(C3CCC(=O)NC3=O)C4=O)nc21 (stereo not drawn)
7. Cn1ccc2c(CN3CCCC3)cc(-c3ccc4c(c3)CN(C3CCC(=O)NC3=O)C4=O)nc21 (stereo not drawn)

Reply:
10 to 100 nM
< 1 nM
1 to 10 nM
1 to 10 nM
1 to 10 nM
< 1 nM
< 1 nM

Give DC50 for each of the items listed below.
1. Cn1cc2c(CN3CCCC3)cc(-c3ccc4c(c3)CN(C3CCC(=O)NC3=O)C4=O)nc2n1 (stereo not drawn)
2. Nc1n[nH]c2c(CN3CCCC3)cc(-c3ccc4c(c3)CN(C3CCC(=O)NC3=O)C4=O)nc12 (stereo not drawn)
3. CN(C)c1n[nH]c2c(CN3CCCC3)cc(-c3ccc4c(c3)CN(C3CCC(=O)NC3=O)C4=O)nc12 (stereo not drawn)

Reply:
1. 10 to 100 nM
2. 1 to 10 nM
3. < 1 nM
